Assignment: determine reported MCHC for the given compounds.
species on record: Rattus norvegicus; test: Open TG-GATES - Regimen: Daily Repeat; type: toxicity, organism-based, Sprague-Dawley; design: regimen Daily Repeat, gender Male, age 6 weeks; conditions: in vivo, po, 0 mg/kg, […], tissue Blood, route gavage, dose level Control, time 28 day
Report only the number, with the unit % understood.

Lookup result for CO[C@H]1/C=C/O[C@@]2(C)Oc3c(C)c(O)c4c(O)c(c(/C=N/N5CCN(C)CC5)c(O)c4c3C2=O)NC(=O)/C(C)=C\C=C\[C@H](C)[C@H](O)[C@@H](C)[C@@H](O)[C@@H](C)[C@H](OC(C)=O)[C@@H]1C ; measured MCHC: 33.4

O=C(O)c1cc(/N=N/c2ccc(S(=O)(=O)Nc3ccccn3)cc2)ccc1O has a reported MCHC of 36.2

Please fill in: MCHC reported for Clc1ccccc1CN1CCc2sccc2C1 = 37.5

Form field MCHC, entry COc1ccc(Cc2nccc3cc(OC)c(OC)cc23)cc1OC : 33

Record CCCC(CCC)C(=O)O . Reported MCHC: 34.9

According to the records, this compound COc1ccc2c(c1)c(CC(=O)O)c(C)n2C(=O)c1ccc(Cl)cc1 displays MCHC of 32.9

Measured MCHC of O=C(O)c1cn(C2CC2)c2cc(N3CCNCC3)c(F)cc2c1=O : 33.6

Entry CSc1ccc2c(c1)N(CCC1CCCCN1C)c1ccccc1S2 (centres undefined) — recorded MCHC = 33.4

Measured MCHC of NC(=O)N/N=C/c1ccc([N+](=O)[O-])o1 : 33.7

Reported MCHC for CN(C)CCC=C1c2ccccc2CCc2ccccc21 was 33.9

# MCHC of C[C@H](CS)C(=O)N1CCC[C@H]1C(=O)O = 33.1

Lab note: CCc1cc(C(N)=S)ccn1 [ETHIONAMIDE] gave MCHC of 34

Kindly note the recorded MCHC for CC(=O)Oc1ccccc1C(=O)O , which is 34.7

get_value(item= Cn1c(=O)c2[nH]cnc2n(C)c1=O.O , readout=MCHC) returns 34.8
